# System: Inhibitor of nuclear factor kappa-B kinase subunit beta (Homo sapiens) (UniProt O14920)
# Sequence (whole entry): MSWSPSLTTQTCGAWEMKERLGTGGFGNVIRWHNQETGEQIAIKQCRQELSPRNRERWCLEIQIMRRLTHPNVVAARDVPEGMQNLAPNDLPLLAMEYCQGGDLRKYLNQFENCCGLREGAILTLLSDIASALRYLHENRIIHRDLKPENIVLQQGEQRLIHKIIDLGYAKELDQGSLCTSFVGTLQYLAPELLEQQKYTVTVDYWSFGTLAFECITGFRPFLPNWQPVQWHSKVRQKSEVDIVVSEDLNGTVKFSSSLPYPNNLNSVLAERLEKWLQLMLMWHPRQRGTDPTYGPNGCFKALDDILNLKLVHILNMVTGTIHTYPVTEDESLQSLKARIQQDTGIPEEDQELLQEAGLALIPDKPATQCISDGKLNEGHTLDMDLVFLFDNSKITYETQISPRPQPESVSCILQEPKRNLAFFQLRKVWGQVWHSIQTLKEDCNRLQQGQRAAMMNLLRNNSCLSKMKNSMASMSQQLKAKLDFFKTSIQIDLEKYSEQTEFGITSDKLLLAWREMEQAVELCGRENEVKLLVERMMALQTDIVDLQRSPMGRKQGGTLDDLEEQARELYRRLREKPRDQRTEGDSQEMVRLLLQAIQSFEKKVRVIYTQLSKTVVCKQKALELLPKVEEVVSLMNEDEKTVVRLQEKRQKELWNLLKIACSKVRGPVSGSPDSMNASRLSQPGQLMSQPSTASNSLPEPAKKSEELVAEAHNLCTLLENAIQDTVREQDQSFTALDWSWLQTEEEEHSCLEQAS
# Assay Protocol: Inhibition of IKKbeta at 1 uM
Entries annotated with measured inhibition

Some entries whose results are on file:
[
  {
    "Molecule": "Cc1c(CN2CCN(S(C)(=O)=O)CC2)nc2c(N3CCOCC3)nc(-c3cnc(N)nc3)cn12",
    "inhibition": "< 30%"
  },
  {
    "Molecule": "CS(=O)(=O)N1CCN(Cc2cn3cc(-c4cnc(N)nc4)nc(N4CCOCC4)c3n2)CC1",
    "inhibition": "< 30%"
  },
  {
    "Molecule": "CS(=O)(=O)N1CCN(Cc2cn3c(Cl)c(-c4cnc(N)nc4)nc(N4CCOCC4)c3n2)CC1",
    "inhibition": "< 30%"
  }
]

The recorded inhibition for entry `CS(=O)(=O)N1CCN(Cc2nc3c(N4CCOCC4)nc(-c4cnc(N)nc4)cn3c2Br)CC1` equals < 30%

The recorded inhibition for entry `Cc1nc(N)ncc1-c1cn2cc(CN3CCN(S(C)(=O)=O)CC3)nc2c(N2CCOCC2)n1` equals < 30%
